Each item that follows carries a reported ED50.
experimentalProtocol: Anti-ECS
Type: in vivo
assayContext: convulsions; oral; 60 minutes before ECS; read-out: Anti-ECS, Convulsions DE50
Quick reminder: number only, in mg/kg, skip the unit.

Here is how some compounds turned out for ED50.
[[record]]
compound = "CC(C)(C)OC(=O)NCCCC(=O)OC1N=C(c2ccccc2)c2cc(Cl)ccc2NC1=O (stereo not drawn)"
testreadout = "ED50"
unitabbreviation = "mg/kg"
observedvalue = 60

[[record]]
compound = "CC(=O)NCCCC(=O)OC1N=C(c2ccccc2)c2cc(Cl)ccc2N(C)C1=O (stereo not drawn)"
testreadout = "ED50"
unitabbreviation = "mg/kg"
observedvalue = 4


Next item in the queue.
I am curious: what ED50 value has been reported for CC(=O)NCC(=O)OC1N=C(c2ccccc2)c2cc(Cl)ccc2NC1=O (stereo not drawn) ?
12

###

experimentalProtocol: Anti-pentylenetetrazol
Assay type: in vivo
assayContext: death; oral; 30 minutes before pentylenetetrazol treatment 130 mg/kg s.c.; read-out: Anti-pentylenetetrazol, Death DE50
testReadout: ED50
Write the quantity with the unit trailing the number.

[[record]]
compound = "CC(=O)NCCCC(=O)OC1N=C(c2ccccc2Cl)c2cc(Cl)ccc2N(C)C1=O (stereo not shown)"
observedvalue = "0.16 mg/kg"


I am curious: what ED50 value has been reported for CC(=O)NCC(=O)OC1N=C(c2ccccc2)c2cc(Cl)ccc2NC1=O (stereo not shown) ?
1.5 mg/kg

I am curious: what ED50 value has been reported for CC(C)(C)OC(=O)NCCCC(=O)OC1N=C(c2ccccc2)c2cc(Cl)ccc2NC1=O (stereo not shown) ?
7 mg/kg

I am curious: what ED50 value has been reported for O=C1Nc2ccc(Cl)cc2C(c2ccccc2)=NC1O (stereo not shown) [Oxazepam, reference compound] ?
5.5 mg/kg

###

Each item that follows carries a reported log10 ED50.
experimentalProtocol: Anti-pentylenetetrazol
Format: in vivo
assayContext: convulsions; oral; 30 minutes before pentylenetetrazol treatment 130 mg/kg s.c.; read-out: Anti-pentylenetetrazol, Convulsions DE50
Please interpret these as log10 of ED50 where ED50 is in mg/kg.

I am curious: what log10 ED50 value has been reported for CC(C)(C)OC(=O)NCCCC(=O)OC1N=C(c2ccccc2)c2cc(Cl)ccc2NC1=O (stereo not shown) [Example 2] ?
1.15

I am curious: what log10 ED50 value has been reported for CC(=O)NCC(=O)OC1N=C(c2ccccc2)c2cc(Cl)ccc2NC1=O (stereo not shown) [Example 5] ?
0.78

I am curious: what log10 ED50 value has been reported for CC(=O)NCCCC(=O)OC1N=C(c2ccccc2Cl)c2cc(Cl)ccc2N(C)C1=O (stereo not shown) [Example 6] ?
-0.70

I am curious: what log10 ED50 value has been reported for CC(=O)NCCCC(=O)OC1N=C(c2ccccc2)c2cc(Cl)ccc2NC1=O (stereo not shown) [Example 1] ?
0.85

I am curious: what log10 ED50 value has been reported for CC(=O)NCCCC(=O)OC1N=C(c2ccccc2Cl)c2cc(Cl)ccc2NC1=O (stereo not shown) [Example 3] ?
0.41

I am curious: what log10 ED50 value has been reported for O=C1Nc2ccc(Cl)cc2C(c2ccccc2)=NC1O (stereo not shown) [Oxazepam, reference compound] ?
1.30

I am curious: what log10 ED50 value has been reported for CC(=O)NCCCC(=O)OC1N=C(c2ccccc2)c2cc(Cl)ccc2N(C)C1=O (stereo not shown) [Example 4] ?
0.70
